MIC, Staphylococcus aureus USA 300, per-entry values.

structureAsSmiles	testSystem	unitTag	modifier	MIC
CC(C)[C@H](NC(=O)[C@H](Cc1c[nH]c2ccccc12)NC(=O)[C@H](Cc1cnc[nH]1)NC(=O)[C@H](CCCN=C(N)N)NC(=O)[C@H](CCCN=C(N)N)NC(=O)[C@H](Cc1c[nH]c2ccccc12)NC(=O)[C@H](Cc1c[nH]c2ccccc12)NC(=O)[C@H](Cc1cnc[nH]1)NC(=O)[C@H](Cc1c[nH]c2ccccc12)NC(=O)[C@H](CCCN=C(N)N)NC(=O)[C@@H](N)CCCCN)C(=O)N[C@H](C(=O)N[C@@H](Cc1c[nH]c2ccccc12)C(N)=O)C(C)C	Staphylococcus aureus USA 300	µM	≥	80
CC[C@H](C)[C@H](NC(=O)[C@H](CCCCN)NC(=O)[C@H](CCCCN)NC(=O)[C@@H](NC(=O)[C@@H](NC(=O)[C@H](CCCCN)NC(=O)[C@H](CCCCN)NC(=O)[C@@H](NC(=O)[C@@H](NC(=O)[C@H](CCCCN)NC(=O)[C@H](CCCCN)NC(=O)[C@@H](NC(=O)[C@@H](NC(=O)CN)[C@@H](C)CC)[C@@H](C)CC)[C@@H](C)CC)[C@@H](C)CC)[C@@H](C)CC)[C@@H](C)CC)C(=O)O	Staphylococcus aureus USA 300	µM	≥	125
CC[C@H](C)[C@H](NC(=O)[C@H](CC(=O)O)NC(=O)[C@H](Cc1c[nH]c2ccccc12)NC(=O)[C@H](CC(C)C)NC(=O)[C@@H](N)CCCN=C(N)N)C(=O)N[C@H](C(=O)N[C@@H](CCCN=C(N)N)C(=O)N[C@@H](CCCN=C(N)N)C(=O)N[C@@H](Cc1c[nH]c2ccccc12)C(=O)N[C@H](C(=O)NCC(=O)N[C@@H](Cc1c[nH]c2ccccc12)C(=O)N[C@@H](CC(C)C)C(N)=O)C(C)C)C(C)C	Staphylococcus aureus USA 300	µM	=	1.14
CC(C)C[C@H](NC(=O)CN)C(=O)N[C@@H](CC(C)C)C(=O)N[C@@H](CO)C(=O)N[C@@H](CC(C)C)C(=O)N[C@@H](CC(C)C)C(=O)N[C@@H](CO)C(=O)N[C@@H](CC(C)C)C(=O)N[C@@H](CC(C)C)C(=O)NCC(=O)N[C@@H](CCCCN)C(=O)N[C@@H](CC(C)C)C(=O)N[C@@H](C)C(N)=O	Staphylococcus aureus USA 300	µM	=	1.56

Taken from DBAASP.
